target: c-Src kinase (Homo sapiens, UniProt P12931); construct: purchased Millipore (KinaseProfiler Service); assay: KinaseProfiler kinase inhibition assay, c-Src; type: biochemical; details: 1 μM compound; read-out: % Inhibition @1 μM cSrc
Sequence (P12931 whole entry): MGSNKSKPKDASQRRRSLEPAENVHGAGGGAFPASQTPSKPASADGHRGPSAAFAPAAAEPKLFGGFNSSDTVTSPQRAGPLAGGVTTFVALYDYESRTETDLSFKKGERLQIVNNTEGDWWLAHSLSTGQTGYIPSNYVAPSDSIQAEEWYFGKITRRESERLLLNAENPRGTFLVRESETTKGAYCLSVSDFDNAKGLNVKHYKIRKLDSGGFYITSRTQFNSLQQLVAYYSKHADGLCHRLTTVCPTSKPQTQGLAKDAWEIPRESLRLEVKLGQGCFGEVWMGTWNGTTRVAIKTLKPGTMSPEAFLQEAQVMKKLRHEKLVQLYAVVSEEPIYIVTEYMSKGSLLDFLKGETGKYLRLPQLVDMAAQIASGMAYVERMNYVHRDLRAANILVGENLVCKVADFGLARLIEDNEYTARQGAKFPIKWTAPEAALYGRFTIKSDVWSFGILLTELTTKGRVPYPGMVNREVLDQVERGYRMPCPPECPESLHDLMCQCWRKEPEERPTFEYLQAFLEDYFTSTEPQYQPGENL
Note: every record was labeled by where its inhibition at 1 µM sits among lo (below 10%), mid (10% to below 20%), hi (20% or more)

Some solved cases for reference:
Prompt: Form: Item = Cc1cc2c(F)c(Oc3cc(Nc4cc(-c5ccco5)[nH]n4)ncn3)ccc2[nH]1 [Example 20] ; Class = ?
Response: hi

Prompt: Form: Item = CCN1CCN(c2ccc(Nc3ncnc(Oc4ccc5c(cc(C)n5C)c4F)c3C#N)cc2)CC1 [Compound 65] ; Class = ?
Response: mid

Prompt: Form: Item = CCN1CCN(c2ccc(Nc3ncnc(Oc4ccc5[nH]c(C)cc5c4F)c3F)nc2)CC1 [Example 29] ; Class = ?
Response: mid

Prompt: Form: Item = CC(=O)N1CCN(c2ccc(Nc3ncnc(Oc4ccc5[nH]c(C)cc5c4F)c3F)cc2)CC1 [Example 26] ; Class = ?
Response: mid

Prompt: Form: Item = Cc1cc2c(F)c(Oc3ncnc(Nc4ccc(N5CCN(C)CC5)cc4)c3F)ccc2[nH]1 [Example 24] ; Class = ?
Response: mid

Others:
Prompt: Form: Item = C/C=C/c1cc(Nc2cc(Oc3ccc4[nH]c(C)cc4c3F)ncn2)n[nH]1 [Example 17] ; Class = ?
Response: hi

Prompt: Form: Item = Cc1cc2c(F)c(Oc3ncnc(Nc4ccc(N5CCN(C)CC5)cn4)c3C)ccc2[nH]1 [Compound 41] ; Class = ?
Response: lo

Prompt: Form: Item = COc1c(Nc2ccc(N3CCN(C)CC3)cc2)ncnc1Oc1ccc2[nH]c(C)cc2c1F [Compound 43] ; Class = ?
Response: lo

Prompt: Form: Item = CCN1CCN(c2ccc(Nc3cc(Oc4ccc5[nH]c(C)cc5c4F)ncn3)cc2)CC1 [Example 3] ; Class = ?
Response: hi

Prompt: Form: Item = COc1ccc(-c2cc(Nc3cc(Oc4ccc5[nH]c(C)cc5c4F)ncn3)n[nH]2)cc1OC [Example 5] ; Class = ?
Response: hi

Prompt: Form: Item = COc1c(Nc2ccc(N3CCN(C)CC3)cn2)ncnc1Oc1ccc2[nH]c(C)cc2c1F [Compound 44] ; Class = ?
Response: lo

Prompt: Form: Item = CCOC(=O)c1cc(Nc2cc(Oc3ccc4[nH]c(C)cc4c3F)ncn2)n[nH]1 [Example 19] ; Class = ?
Response: lo

Prompt: Form: Item = Cc1cc2c(F)c(Oc3cc(Nc4cccc(N5CCN(C)CC5)c4)ncn3)ccc2[nH]1 [Example 13] ; Class = ?
Response: hi

Prompt: Form: Item = Cc1cc2c(F)c(Oc3ncnc(Nc4ccc(N5CCNCC5)cc4)c3F)ccc2[nH]1 [Example 28] ; Class = ?
Response: mid

Prompt: Form: Item = Cc1cc2c(F)c(Oc3ncnc(Nc4ccc(N5CCN(C)CC5)cc4)c3Cl)ccc2[nH]1 [Compound 35] ; Class = ?
Response: lo

* * *

target: Ret kinase (Homo sapiens, UniProt P07949); construct: purchased Millipore (KinaseProfiler Service); assay: KinaseProfiler kinase inhibition assay, Ret; assay type: biochemical; conditions: 1 μM compound
Sequence (P07949 29-1114): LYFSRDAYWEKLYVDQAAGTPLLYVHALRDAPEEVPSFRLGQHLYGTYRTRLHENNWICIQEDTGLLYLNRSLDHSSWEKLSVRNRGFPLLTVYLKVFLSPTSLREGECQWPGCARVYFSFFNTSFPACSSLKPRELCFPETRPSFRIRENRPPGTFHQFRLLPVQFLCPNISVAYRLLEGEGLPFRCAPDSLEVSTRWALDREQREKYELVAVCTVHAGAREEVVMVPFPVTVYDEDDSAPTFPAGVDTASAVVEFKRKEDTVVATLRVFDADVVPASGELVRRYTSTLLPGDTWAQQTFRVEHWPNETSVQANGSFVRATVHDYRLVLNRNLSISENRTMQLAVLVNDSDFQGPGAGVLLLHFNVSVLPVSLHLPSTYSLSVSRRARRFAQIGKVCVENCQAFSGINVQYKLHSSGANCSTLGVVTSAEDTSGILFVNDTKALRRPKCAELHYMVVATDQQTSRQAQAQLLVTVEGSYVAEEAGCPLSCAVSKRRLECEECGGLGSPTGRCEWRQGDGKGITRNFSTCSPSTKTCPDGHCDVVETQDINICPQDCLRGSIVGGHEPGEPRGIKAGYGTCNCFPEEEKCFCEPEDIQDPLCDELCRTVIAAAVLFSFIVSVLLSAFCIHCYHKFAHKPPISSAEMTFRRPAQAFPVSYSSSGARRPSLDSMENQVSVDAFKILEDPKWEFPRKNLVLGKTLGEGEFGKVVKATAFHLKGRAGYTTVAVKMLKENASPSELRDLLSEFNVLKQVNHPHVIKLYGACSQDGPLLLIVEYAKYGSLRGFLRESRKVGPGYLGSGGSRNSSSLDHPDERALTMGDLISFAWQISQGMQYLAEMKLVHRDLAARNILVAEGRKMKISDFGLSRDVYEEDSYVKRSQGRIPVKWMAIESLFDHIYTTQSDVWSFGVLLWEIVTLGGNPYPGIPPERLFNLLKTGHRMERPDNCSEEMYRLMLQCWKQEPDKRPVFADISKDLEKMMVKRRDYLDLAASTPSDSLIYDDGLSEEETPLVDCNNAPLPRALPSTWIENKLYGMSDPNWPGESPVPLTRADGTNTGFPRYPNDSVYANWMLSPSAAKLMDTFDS
measured property: inhibition at 1 µM (%)
Give bare numbers, in %.

Before answering, review these 3 worked examples.
Prompt: Fill blank: measured inhibition at 1 µM of the compound `CCN1CCN(c2ccc(Nc3ncnc(Oc4ccc5[nH]c(C)cc5c4F)c3F)nc2)CC1` is ____.
Response: -29

Prompt: Fill blank: measured inhibition at 1 µM of the compound `Cc1cc2c(F)c(Oc3cc(Nc4ccc(N5CCNCC5)cc4)ncn3)cc(F)c2[nH]1` is ____.
Response: 74

Prompt: Fill blank: measured inhibition at 1 µM of the compound `Cc1cc2c(F)c(Oc3ncnc(Nc4cc(C5CC5)n[nH]4)c3F)ccc2[nH]1` is ____.
Response: -33

Now let's try a different one.
Prompt: Fill blank: measured inhibition at 1 µM of the compound `CC(=O)N1CCN(c2ccc(Nc3cc(Oc4cc(F)c5[nH]c(C)cc5c4F)ncn3)cc2)CC1` is ____.
Response: 36
